target: 5-hydroxytryptamine receptor 1A (Rattus norvegicus)
Sequence (P19327 whole entry): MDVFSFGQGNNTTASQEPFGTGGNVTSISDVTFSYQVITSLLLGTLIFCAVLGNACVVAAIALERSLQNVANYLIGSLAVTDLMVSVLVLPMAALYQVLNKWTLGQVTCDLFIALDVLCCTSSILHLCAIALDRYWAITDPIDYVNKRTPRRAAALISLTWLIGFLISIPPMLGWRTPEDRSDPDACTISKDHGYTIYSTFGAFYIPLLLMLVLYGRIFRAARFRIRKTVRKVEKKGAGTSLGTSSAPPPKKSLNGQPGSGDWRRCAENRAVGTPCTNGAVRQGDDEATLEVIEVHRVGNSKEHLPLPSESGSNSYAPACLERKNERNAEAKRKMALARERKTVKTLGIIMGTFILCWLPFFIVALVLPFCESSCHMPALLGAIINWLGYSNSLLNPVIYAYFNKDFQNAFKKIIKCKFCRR
REPORTED_PROPERTY: Ki (nM)
Only the number, expressed in nM, is required.

Query: Please state recorded Ki (tested on 5-hydroxytryptamine receptor 1A (Rattus norvegicus)) of `Clc1ccccc1N1CCNCC1`
Response: 226

###

Target: Alpha-1A adrenergic receptor (Rattus norvegicus, UniProt P43140)
Sequence (P43140 whole entry): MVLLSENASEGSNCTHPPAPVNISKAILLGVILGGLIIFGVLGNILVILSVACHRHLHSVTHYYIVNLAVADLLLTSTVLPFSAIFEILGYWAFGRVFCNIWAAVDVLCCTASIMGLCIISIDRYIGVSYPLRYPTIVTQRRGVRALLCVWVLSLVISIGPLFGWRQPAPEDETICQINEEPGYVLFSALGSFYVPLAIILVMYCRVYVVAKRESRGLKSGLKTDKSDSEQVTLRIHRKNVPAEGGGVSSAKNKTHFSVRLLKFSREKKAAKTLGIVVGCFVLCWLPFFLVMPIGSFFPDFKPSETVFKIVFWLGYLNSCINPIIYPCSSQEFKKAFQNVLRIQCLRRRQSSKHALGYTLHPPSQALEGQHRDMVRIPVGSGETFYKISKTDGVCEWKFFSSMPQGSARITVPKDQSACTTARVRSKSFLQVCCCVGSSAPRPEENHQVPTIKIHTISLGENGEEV
Assay: Binding affinity measured for alpha-1 adrenergic receptor by displacement of [3H]prazosin from rat cortical membranes
Type: cell membranes, Membrane
REPORTED_PROPERTY: Ki

Query: Returns the measured Ki for the input compound. Input: `CCN(CC)CCCn1c(=O)[nH]c2c([nH]c3ccccc32)c1=O`
Response: > 100 µM

More entries:
Query: Returns the measured Ki for the input compound. Input: `O=c1[nH]c2c([nH]c3ccccc32)c(=O)n1CCN1CCCCC1`
Response: > 100 µM

Query: Returns the measured Ki for the input compound. Input: `CN(C)CCCn1c(=O)[nH]c2c([nH]c3ccccc32)c1=O`
Response: > 100 µM

Query: Returns the measured Ki for the input compound. Input: `CN(C)CCn1c(=O)[nH]c2c([nH]c3ccccc32)c1=O`
Response: > 100 µM

Query: Returns the measured Ki for the input compound. Input: `O=c1[nH]c2c([nH]c3ccccc32)c(=O)n1CCN1CCOCC1`
Response: > 100 µM

Query: Returns the measured Ki for the input compound. Input: `COc1ccccc1N1CCNCC1`
Response: 3.51 µM

Query: Returns the measured Ki for the input compound. Input: `Clc1ccccc1N1CCNCC1`
Response: 0.71 µM

Query: Returns the measured Ki for the input compound. Input: `CCOC(=O)N1CCN(CCn2c(=O)[nH]c3c([nH]c4ccccc43)c2=O)CC1`
Response: > 100 µM

Query: Returns the measured Ki for the input compound. Input: `O=c1[nH]c2c([nH]c3ccccc32)c(=O)n1CCN1CCCC1`
Response: > 100 µM

Query: Returns the measured Ki for the input compound. Input: `CCN(CC)CCn1c(=O)[nH]c2c([nH]c3ccccc32)c1=O`
Response: > 100 µM
